- method description: Selectivity index, ratio of IC50 for human HF19 cells to IC50 for Trypanosoma brucei brucei GUTat 3.1 bloodstream forms
- Format: toxicity, cell-based
- experimental conditions: read-out: Ratio IC50
metric: selectivity ratio
Give bare numbers.

In: Look up selectivity ratio for this molecule: COC(=O)C1=CO[C@@H]2O[C@H]3/C(=C\c4ccc(O)c(OC)c4)C(=O)O[C@]34C=C[C@H]1[C@H]24
Out: 9.54
